assayNotes: RAM signaling pathway blockade in yeast – S. cerevisiae, Pdr1DBD-CYC8 efflux-inhibited sensitized strain, primary screen (AID 1298);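 note: 0% = DMSO untreated cells without growth and 100% = 10 µM 1-NA-PP1 full growth; higher means more yeast growth rescued from 5-FOA killing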
measurementContext: S. cerevisiae cbk1-as DSE1-URA3 strain, 5-FOA growth OD615, 2 d; at 50 µM; hits give high values
experimentalEndpoint: RAM network inhibition (%)
Write it as a number; the unit % goes unstated.

Task: Supply recorded RAM network inhibition for `CCN(CC)Cc1c[nH]c2c(C(=O)OC)cccc12` here.
Result: -1.31

Task: Supply recorded RAM network inhibition for COc1ccc(N2C(=O)CCC(C(=O)NCc3ccccn3)C2c2ccc(OC)c(OC)c2)cc1 (stereo unspecified) here.
Result: -0.31

Task: Supply recorded RAM network inhibition for `COc1ccc(CC(=O)Nc2oc(-c3ccccc3)c(-c3ccccc3)c2C#N)cc1OC` here.
Result: 8.44

Task: Supply recorded RAM network inhibition for CCCSC1=C(C#N)C(c2ccc(O)c(OC)c2)CC(=O)N1 (stereo unspecified) here.
Result: 1.36

Task: Supply recorded RAM network inhibition for `CC(=O)Nc1ccc(S(=O)(=O)N2CCSCC2)cc1` here.
Result: 3.21

Task: Supply recorded RAM network inhibition for `CCOC(=O)c1ccc(NC(=O)CCC(=O)OC)cc1` here.
Result: 3.41

Task: Supply recorded RAM network inhibition for `CCOCCn1c(SCc2ccccc2)nc2c1c(=O)[nH]c(=O)n2C` here.
Result: 7.51

Task: Supply recorded RAM network inhibition for `O=C(OCC(F)(F)C(F)F)c1ccccc1C(=O)Oc1ccc(F)cc1F` here.
Result: 3.89

Task: Supply recorded RAM network inhibition for O=C(NC1CCCc2ccccc21)C1CCC(CNc2c(N3CCOCC3)c(=O)c2=O)CC1 (stereo unspecified) here.
Result: 1.43

Task: Supply recorded RAM network inhibition for `O=C(NCCc1ccc(Cl)cc1)c1cnc2n(c1=O)CCS2` here.
Result: 9.74

Task: Supply recorded RAM network inhibition for `c1ccc(CSc2nnc(-c3ccco3)n2Cc2ccco2)cc1` here.
Result: 3.53

Task: Supply recorded RAM network inhibition for `O=C(c1ccncc1)N1CCN(C(=O)c2cccc3ccccc23)CC1` here.
Result: 2.45

Task: Supply recorded RAM network inhibition for `O=C(CN1c2cccc3cccc(c23)S1(=O)=O)NCc1ccc2c(c1)OCO2` here.
Result: 5.12

Task: Supply recorded RAM network inhibition for CC(=O)N=C1SC2CS(=O)(=O)CC2N1c1c(Cl)cccc1Cl (stereo unspecified) here.
Result: -0.17

---

assayNotes: Restrictive medium S. cerevisiae growth inhibition, OD615, pilot screen of yeast lifespan reduction project, restrictive growth control (AID 706);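 note: modified DeaD lifespan yeast strain shifted to restrictive glucose medium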
measurementContext: OD615, 48 h, at 10 µM, hits give high values
experimentalEndpoint: growth inhibition (%)
Write it as a number; the unit % goes unstated.

Examples with answers:
[[record]]
molecule = "O=C1CC(Nc2ccc(N3CCOCC3)cc2)C(=O)N1c1ccccc1F (stereo unspecified)"
unitdescriptor = "%"
quantitativereadout = -5.97

[[record]]
molecule = "Cn1nc(-c2ccc(Cl)cc2)c2cc(C(=O)NC3CC3)sc21"
unitdescriptor = "%"
quantitativereadout = -1.2


Task: Supply recorded growth inhibition for CC1CC(C)(C)Nc2ccc(OC(=O)c3ccco3)cc21 (stereo unspecified) here.
Result: 5.69

Task: Supply recorded growth inhibition for `Cn1c(Cn2c(=O)sc3ccccc32)nnc1SCC(=O)Nc1cccc(F)c1` here.
Result: -5.46

Task: Supply recorded growth inhibition for `COc1cc(NS(=O)(=O)c2ccc3c(c2)oc(=O)n3C)cc(OC)c1OC` here.
Result: 0.425

Task: Supply recorded growth inhibition for `CN1CCN(CCCNC(=O)c2cc3c(-c4ccc(Cl)cc4)nn(C)c3s2)CC1` here.
Result: -2.25

Task: Supply recorded growth inhibition for `NC(=O)CCc1c[nH]c2ccccc12` here.
Result: -4.15

Task: Supply recorded growth inhibition for `CCCCN(C(=O)NC(=O)C1=C(N2CCOCC2)/C(=C/c2ccccc2)CC1)S(C)(=O)=O` here.
Result: -6.07

Task: Supply recorded growth inhibition for Cn1c2c(c(=O)n(C)c1=O)C(c1cc3c(cc1Br)OCO3)CC(=O)N2 (stereo unspecified) here.
Result: -4.15

Task: Supply recorded growth inhibition for COc1ccc(C2C(C(N)=O)=C(C)Nc3nc(-c4ccccc4Cl)nn32)c(OC)c1 (stereo unspecified) here.
Result: -11.2

Task: Supply recorded growth inhibition for `O=C(NC1CCCCCCC1)c1cnccn1` here.
Result: 10.4

Task: Supply recorded growth inhibition for `Cc1ccc(C(=O)NCCCCNC(=O)c2ccc(C)o2)o1` here.
Result: -4.64

Task: Supply recorded growth inhibition for `CCOC(=O)C1=C(C)NC(C)=C(C(=O)OCC)C1c1nc2ccccc2[nH]1` here.
Result: -11.2

Task: Supply recorded growth inhibition for `Cc1ccccc1C(=O)Nc1ccc2nc3n(c(=O)c2c1)CCC3` here.
Result: 0.31

Task: Supply recorded growth inhibition for `COc1ccc(NC(=O)C2CCN(S(=O)(=O)c3cccc4cccnc34)CC2)cc1` here.
Result: 3.15

Task: Supply recorded growth inhibition for O=C1CC(c2ccco2)Sc2nc3ccccc3n21 (stereo unspecified) here.
Result: 13.4

---

assayNotes: growth suppression of PTEN-deleted HCT116, pilot screen, cell-based, HCT116 clonal line, CellTiter-Glo (AID 824);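 note: 0% = 20 µM Hyamine control and 100% = vehicle cell control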
measurementContext: 60 h, at 10 µM, hits give low values
Results filed as inconclusive are left out. Calls of active or inactive are those of the source.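 Rule for the calls: active = viability at or below 27.92% in each of two runs, the all-compound median minus 4 SD; inconclusive = no clear call, values can overlap the other calls; inactive = the rest.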
experimentalEndpoint: viability

Examples with answers:
[[record]]
compound = "O=C1Nc2ccc(S(=O)(=O)N3CCCCCC3)c3cccc1c23"
result = "86.2% (inactive)"

[[record]]
compound = "CCOC(=O)c1nc2ccccc2s1"
result = "97.4% (inactive)"

[[record]]
compound = "Cc1cc(Cl)ccc1N=Cc1c(O)n(C)c(=O)n(C)c1=O"
result = "105% (inactive)"

[[record]]
compound = "CCCCCn1c(C(C)NC(=O)CCC)nc2ccccc21 (stereo unspecified)"
result = "88.7% (inactive)"

[[record]]
compound = "O=C(Nc1nc2c(s1)CCCC2)c1ccc(Br)o1"
result = "64.6% (inactive)"


Now let's try a different one.
Task: Supply recorded viability for `COc1ccccc1N1CCN(CCCC(=O)c2ccc(F)cc2)CC1` here.
Result: 88.9% (inactive)

---

assayNotes: inhibitors of the yeast RAM network, pilot screen, dse1pr::URA3 reporter, 5-FOA selection (AID 869);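 note: 0% = DMSO wells with no growth and 100% = 10 µM 1-NA-PP1 with full growth; RAM network block rescues cells from 5-FOA so hits raise OD615 growth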
measurementContext: S. cerevisiae dse1pr::URA3 5-FOA growth, OD615, 2 d; at 10 µM; hits give high values; strain carries analog-sensitive mutant Cbk1 kinase
Activity calls are given as the source filed them.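 Rule for the calls: active = inhibition over a set limit, the all-compound mean plus 3 SD, in both replicate runs; inconclusive = over that limit in just one replicate run; inactive = at or under that limit in both runs.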
experimentalEndpoint: inhibition

[[record]]
compound = "CCOc1cccc(C2c3c(oc4ccccc4c3=O)C(=O)N2c2ccccn2)c1 (stereo not drawn)"
result = "0% (inactive)"

[[record]]
compound = "CCCc1nc(N)nc2c1C(=O)CC(C)(C)C2"
result = "1.54% (inactive)"


Now let's try a different one.
Task: Supply recorded inhibition for `CC(=O)/C(C(=N)N1CCN(Cc2ccccc2)CC1)=C(\C)O` here.
Result: 2.4% (inactive)

---

assayNotes: Restrictive medium S. cerevisiae growth inhibition, OD615, pilot screen of yeast lifespan reduction project, restrictive growth control (AID 706);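 note: modified DeaD lifespan yeast strain shifted to restrictive glucose medium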
measurementContext: OD615, 48 h, at 10 µM, hits give high values
Listing: growth inhibition of selected compounds
Write it as a number; the unit % goes unstated.

Examples with answers:
[[record]]
compound = "CCCNC(=O)C(Cc1ccccc1)NS(=O)(=O)c1ccc2c(c1)CCC(=O)N2 (stereo not given)"
experimentalendpoint = "growth inhibition"
quantitativereadout = -3.94

[[record]]
compound = "COc1ccc(C2C(C(=O)NCCN(C)C)c3ccccc3C(=O)N2C)cc1OC (stereo not given)"
experimentalendpoint = "growth inhibition"
quantitativereadout = -1.69

[[record]]
compound = "COc1ccc(NC(=O)Nc2ccc3c(c2)N(C)C(=O)CS3)cc1OC"
experimentalendpoint = "growth inhibition"
quantitativereadout = -18.2

[[record]]
compound = "Cc1noc(C)c1S(=O)(=O)N(CC(=O)NCc1ccc2c(c1)OCO2)c1ccc(C(C)C)cc1"
experimentalendpoint = "growth inhibition"
quantitativereadout = -8.46

[[record]]
compound = "Cc1cc2ccccc2n1CCNC(=O)c1cccs1"
experimentalendpoint = "growth inhibition"
quantitativereadout = 7.93


Task: Supply recorded growth inhibition for COCCNC(=O)CS(=O)Cc1nc(-c2ccc(Cl)cc2)oc1C (stereo not given) here.
Result: -1.85

Task: Supply recorded growth inhibition for CCCN(CCC)C(=O)c1ccc2c(c1)N(Cc1ccccc1)C(=O)CS2=O (stereo not given) here.
Result: -7.64

Task: Supply recorded growth inhibition for `N#Cc1c2n(c3c(-c4ccccc4)ncnc13)CCC2` here.
Result: -11.2

---

Listing: viability of selected compounds
assayNotes: growth suppression of PTEN-deleted HCT116, pilot screen, cell-based, HCT116 clonal line, CellTiter-Glo (AID 824);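 note: 0% = 20 µM Hyamine control and 100% = vehicle cell control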
measurementContext: 60 h, at 10 µM, hits give low values
Records with an inconclusive call do not appear.
Write it as a number; the unit % goes unstated.

Task: Supply recorded viability for `CCOc1ccc(NC(=O)Nc2ccc3c(c2)N(C)C(=O)CS3)cc1` here.
Result: 89.1

Task: Supply recorded viability for `COc1cc(NC(=O)c2c(-c3ccccc3Cl)noc2C)c2ncccc2c1` here.
Result: 64.3

Task: Supply recorded viability for `NC(=O)CCc1c[nH]c2ccccc12` here.
Result: 94.2

Task: Supply recorded viability for `c1ccc(CSc2nnc(-c3ccco3)n2Cc2ccco2)cc1` here.
Result: 87.4

Task: Supply recorded viability for `O=c1[nH]c2ccc(Cl)cc2c(-c2ccccc2)c1N1CCOCC1` here.
Result: 88

Task: Supply recorded viability for O=C(O)c1ccccc1C(=O)NCC(O)COCC1CC=CCC1 (stereo unspecified) here.
Result: 100

Task: Supply recorded viability for `CCCCNC(=O)c1ccc2nc(-c3ccco3)c(-c3ccco3)nc2c1` here.
Result: 97.5

Task: Supply recorded viability for `CN1C(=O)c2cccc(NC(=O)Cc3ccccc3)c2C1=O` here.
Result: 91.1

Task: Supply recorded viability for `COc1ccc(CCNC(=O)CCNS(=O)(=O)c2cccc3nsnc23)cc1OC` here.
Result: 97.2

Task: Supply recorded viability for `CCOC(=O)C1CCN(C(=O)C2CCN(S(=O)(=O)c3cccc4cccnc34)CC2)CC1` here.
Result: 97.6

Task: Supply recorded viability for `CCCCC(=O)Nc1nc2c(OC)ccc(OC)c2s1` here.
Result: 98.3
